- testedTarget: T1, integrin αvβ3, purified from human placenta (human, UniProt P06756 31-1048; P05106 27-788)
- T1 construct: mature; Native heterodimer, immobilized on ELISA plates or on the BIAcore chip; biotinylated in capture lift and capture ELISA screens; also called αvβ3 receptor; vitronectin receptor
- T1 sequence (P06756 31-1048, form in doubt, chain 1 of 2): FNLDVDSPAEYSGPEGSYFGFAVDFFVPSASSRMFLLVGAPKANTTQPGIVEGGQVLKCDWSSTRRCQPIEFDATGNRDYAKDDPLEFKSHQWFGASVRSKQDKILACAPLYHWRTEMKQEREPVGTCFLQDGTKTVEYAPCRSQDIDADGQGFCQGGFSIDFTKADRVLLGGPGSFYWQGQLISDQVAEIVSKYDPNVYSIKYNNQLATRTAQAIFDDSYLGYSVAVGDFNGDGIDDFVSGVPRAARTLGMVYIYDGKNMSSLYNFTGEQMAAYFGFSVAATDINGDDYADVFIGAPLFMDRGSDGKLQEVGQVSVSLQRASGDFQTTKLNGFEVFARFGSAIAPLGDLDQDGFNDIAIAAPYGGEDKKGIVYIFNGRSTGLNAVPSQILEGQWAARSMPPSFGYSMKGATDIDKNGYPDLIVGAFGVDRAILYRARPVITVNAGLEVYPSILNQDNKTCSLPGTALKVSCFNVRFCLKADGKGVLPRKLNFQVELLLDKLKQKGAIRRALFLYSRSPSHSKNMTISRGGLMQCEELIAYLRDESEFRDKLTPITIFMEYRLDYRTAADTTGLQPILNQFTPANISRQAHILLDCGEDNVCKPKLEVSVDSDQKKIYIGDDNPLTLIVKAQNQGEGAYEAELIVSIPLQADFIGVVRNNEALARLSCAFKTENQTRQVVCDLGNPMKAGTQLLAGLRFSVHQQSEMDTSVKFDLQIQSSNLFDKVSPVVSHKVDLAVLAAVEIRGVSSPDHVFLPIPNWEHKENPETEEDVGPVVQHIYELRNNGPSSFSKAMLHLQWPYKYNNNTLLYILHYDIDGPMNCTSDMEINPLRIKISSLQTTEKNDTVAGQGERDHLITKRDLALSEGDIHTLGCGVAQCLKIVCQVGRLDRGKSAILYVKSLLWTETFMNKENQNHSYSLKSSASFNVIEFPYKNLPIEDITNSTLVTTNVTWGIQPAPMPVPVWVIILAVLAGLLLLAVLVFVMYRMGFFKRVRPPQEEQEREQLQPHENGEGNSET
- T1 sequence (P05106 27-788, form in doubt, chain 2 of 2): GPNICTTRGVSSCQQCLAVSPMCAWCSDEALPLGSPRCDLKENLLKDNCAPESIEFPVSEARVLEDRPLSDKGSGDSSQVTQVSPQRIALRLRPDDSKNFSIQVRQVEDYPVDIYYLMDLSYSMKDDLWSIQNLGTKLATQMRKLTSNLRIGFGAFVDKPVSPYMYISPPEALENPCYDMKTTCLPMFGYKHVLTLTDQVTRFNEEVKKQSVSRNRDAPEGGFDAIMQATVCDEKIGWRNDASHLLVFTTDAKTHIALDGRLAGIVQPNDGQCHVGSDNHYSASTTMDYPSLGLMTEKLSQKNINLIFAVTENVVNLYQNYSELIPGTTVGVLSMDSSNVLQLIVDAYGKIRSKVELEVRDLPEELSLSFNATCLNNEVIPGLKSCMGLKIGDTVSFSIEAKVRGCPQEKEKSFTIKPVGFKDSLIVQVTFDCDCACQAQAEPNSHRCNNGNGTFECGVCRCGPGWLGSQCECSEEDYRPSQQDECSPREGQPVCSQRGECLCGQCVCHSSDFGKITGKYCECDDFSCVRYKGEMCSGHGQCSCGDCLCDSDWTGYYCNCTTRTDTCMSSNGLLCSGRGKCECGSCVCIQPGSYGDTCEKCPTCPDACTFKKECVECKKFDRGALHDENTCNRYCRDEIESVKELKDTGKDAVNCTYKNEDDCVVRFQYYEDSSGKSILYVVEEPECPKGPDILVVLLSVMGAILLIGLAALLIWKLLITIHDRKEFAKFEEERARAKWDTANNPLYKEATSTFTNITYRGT
- procedureText: SPR (BIAcore), purified Fab over immobilized αvβ3
measurementLabel: kon (M⁻¹ s⁻¹)

binder="LM609 grafted antibody combinatorial clone 6H6 (Fab, V domains shown, Fab) VH: QVQLVESGGGVVQPGRSLRLSCAASGFTFSSYDMSWVRQAPGKGLEWVAKVSSGGGSTYYLDTVQGRFTISRDNSKNTLYLQMNSLRAEDTAVYYCARHNHGSFASWGQGTTVTVSS VL: EIVLTQSPATLSLSPGERATLSCQASQSISNHLHWYQQRPGQAPRLLIRYRSQSISGIPARFSGSGSGTDFTLTISSLEPEDFAVYYCQQSGSWPLTFGGGTKVEIK" result=504000
binder="LM609 grafted antibody combinatorial clone C29 (Fab, V domains shown, Fab) VH: QVQLVESGGGVVQPGRSLRLSCAASGFTFSSYDMSWVRQAPGKGLEWVAKVSSGGGSTYYPDTVQGRFTISRDNSKNTLYLQMNSLRAEDTAVYYCARHNHGSFYSWGQGTTVTVSS VL: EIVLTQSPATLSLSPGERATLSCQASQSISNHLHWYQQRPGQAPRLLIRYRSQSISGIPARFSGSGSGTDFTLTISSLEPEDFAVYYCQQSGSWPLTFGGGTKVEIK" result=675000
binder="LM609 grafted antibody combinatorial clone 17 (Fab, V domains shown, Fab) VH: QVQLVESGGGVVQPGRSLRLSCAASGFTFSSYDMSWVRQAPGKGLEWVAKVSSGGGSTYYLDTVQGRFTISRDNSKNTLYLQMNSLRAEDTAVYYCARHNYGSFASWGQGTTVTVSS VL: EIVLTQSPATLSLSPGERATLSCQASQSISNFLHWYQQRPGQAPRLLIRYRSQSISGIPARFSGSGSGTDFTLTISSLEPEDFAVYYCQQSGSWPHTFGGGTKVEIK" result=251000

Data origin, for the record: patent US20060204492A1
